Target: T1, recombinant biotinylated human PD-L1 ectodomain (IgV and IgC domains, residues 19-239) (human, UniProt Q9NZQ7 19-239, enzymatically biotinylated (BirA) on the biotin acceptor peptide)
T1 construct: also called biotinylated hPD-L1; biotinylated PD-L1; not shown: carboxy-terminal 8x histidine tag
T1 sequence (Q9NZQ7 other isoform, or with tags, fused parts or gaps): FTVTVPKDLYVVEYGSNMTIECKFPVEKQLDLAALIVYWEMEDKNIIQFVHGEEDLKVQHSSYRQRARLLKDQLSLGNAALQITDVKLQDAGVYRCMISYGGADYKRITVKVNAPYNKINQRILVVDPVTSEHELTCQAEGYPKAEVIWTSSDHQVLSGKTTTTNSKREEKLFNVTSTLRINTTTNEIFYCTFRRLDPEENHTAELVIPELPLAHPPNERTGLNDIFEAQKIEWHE
Experiment: surface plasmon resonance, biotinylated hPD-L1 immobilized on a streptavidin chip; column head 'PD-L1 affinity'
endpoint name: Kd (nM)

[[record]]
binder = "G2 4-2 (designed binder) DSPDRPWNPPTFSPALLVVTEGDNATFTCSFSNTSESFHIIWHRESPSGQTDTLAAFPEDRSQPGQDARFRVTQLPNGRDFHLSVVRARRNDSGTYVCGVISLAPKIQIKESLRAELRVTERHHHHHHHH"
endpoint_name = "Kd"
numeric_readout = 0.222

[[record]]
binder = "G1 4-1 (designed binder, also called Generation 1, clone 4-1) PD-1 variant IgV domain: DSPDRPWNPPTFSPALLVVTEGDNATFTCSFSNTSESFRLVWHRESPGYETDTLASFPEDRSTPLPDCRFRVTQLPNGRDFHMSVVRARRNDSGTYVCGAIAFHPVIQIKESLRAELRVTER"
endpoint_name = "Kd"
numeric_readout = 7.78

[[record]]
binder = "wild-type human PD-1 IgV domain (residues 26-147), native PD-1 mimic polypeptide (receptor, Soluble monomer secreted from High Five insect cells; also called wild-type hPD-1; WT PD-1 monomer) DSPDRPWNPPTFSPALLVVTEGDNATFTCSFSNTSESFVLNWYRMSPSNQTDKLAAFPEDRSQPGQDCRFRVTQLPNGRDFHMSVVRARRNDSGTYLCGAISLAPKAQIKESLRAELRVTERHHHHHHHH"
endpoint_name = "Kd"
numeric_readout = 3880

[[record]]
binder = "G2 4-5 (designed binder, also called Generation 2, clone 4-5) PD-1 variant IgV domain: DSPDRPWNPPTFSPALLVVTEGDNATFTCSFSNTSESFHVVWHRESPSSQTDTLAAFPEDRSQPGPDARFRVTQLPNGRDFQLSVVRARRNDSGTYVCGVISLAPKIQIKESLRAELRVTER"
endpoint_name = "Kd"
numeric_readout = 0.196

[[record]]
binder = "G2 4-12 (designed binder, also called Generation 2, clone 4-12) PD-1 variant IgV domain: DSPDRPWNPPTFSPALLVVTEGDNATFTCSFSNTSESFHVVWHYESPSGQTDTLAAFPEDRSQPGQDARFRVTQLPNGRDFHLSVVRARRNDSGTYVCGIISLAPKIQIKESLRAELRVTER"
endpoint_name = "Kd"
numeric_readout = 0.218

[[record]]
binder = "G2 4-1 (Generation 2, clone 4-1) (designed binder) DSPDRPWNPPTFSPALLVVTEGDNATFTCSFSNTSESFHVVWHRESPSGQTDTLAAFPEDRSQPGPDARFRVTQLPNGRDFHLSVVRARRNDSGTYVCGAISLAPKIQIKESLRAELRVTERHHHHHHHH"
endpoint_name = "Kd"
numeric_readout = 0.267

[[record]]
binder = "G1 4-4 (designed binder, also called Generation 1, clone 4-4) PD-1 variant IgV domain: DSPDRPWNPPTFSPALLVVTEGDNATFTCSFSNTSESFRLVWHRESPNNHAYTLALFPEDRSLPFPDCRFRVTQLPNGRDFHMSVVRARRNDSGTYICGAITFDPRIQIKESLRAELRVTER"
endpoint_name = "Kd"
numeric_readout = 10.7

